# test description: Cytotoxic activity, MTT method
# Format: cell-based
# conditions: human, LC50
measure: CC50 at 72 h (µM)
Number only, in µM; omit the unit.

Asked: Return value of CC50 at 72 h for input Cc1ccccc1NC(=O)C1CC(=O)c2ccccc2S1 (stereo not drawn) [Compound 24c] , no commentary.
Given back: 119

Asked: Using known records, supply CC50 at 72 h for CCCCCC1Sc2ccccc2C(O)=C1C(C)=O (stereo not drawn) [Compound 10d]
Given back: 51

Asked: Quick one: give measured CC50 at 72 h for CCOC(=O)C1CC(=NNC(=O)c2ccncc2)c2ccccc2S1 (stereo not drawn) [Compound 26b]
Given back: 15.2

Others:
Asked: Look up and state reported CC50 at 72 h for CCOC(=O)C1CC(=NNC(=O)c2ccccc2)c2ccccc2S1 (stereo not drawn) [Compound 26a]
Given back: 15.4

Asked: Supply reported CC50 at 72 h belonging to this compound: CC(=O)C1=Cc2ccccc2SC1c1ccccc1 (stereo not drawn) [Compound 8c]
Given back: 6

Asked: # return recorded CC50 at 72 h for input CCCCCC1Sc2ccccc2C=C1C(C)=O (stereo not drawn) [Compound 8d]
Given back: 25.7

Asked: Return the recorded CC50 at 72 h value; entry: CCCCCCCCCCOC(=O)C1CC(=O)c2ccccc2S1 (stereo not drawn) [Compound 22d, Decyl 4-oxo-thiochromane-2-carboxylate]
Given back: 140

Asked: Name the recorded CC50 at 72 h of the compound listed here: O=CC1=Cc2ccccc2SC1c1ccccc1 (stereo not drawn) [Compound 13a, 2-Phenyl-2H-thiochromene-3-carbaldehyde]
Given back: 54.7

---

# test description: Cytotoxic activity, MTT method
# Format: cell-based
# conditions: human, LC50
measure: log10 of CC50 at 72 h (log10 of the value in µM)
Parameter value (number): base-10 log of CC50 at 72 h in µM.

The following molecules have reported results that may help.
Asked: Consider the molecule C[C@@H]1[C@H](O)[C@@H](C)/C=C/C=C/C=C/C=C/C=C/C=C/C=C/[C@H](O[C@@H]2O[C@H](C)[C@@H](O)[C@H](N)[C@@H]2O)C[C@@H]2O[C@](O)(C[C@@H](O)C[C@@H](O)[C@H](O)CC[C@@H](O)C[C@@H](O)CC(=O)O[C@H]1C)C[C@H](O)[C@H]2C(=O)O [Amphotericin B, reference compound] and give its recorded log10 of CC50 at 72 h.
Given back: 1.75

Asked: # return recorded log10 of CC50 at 72 h for entry COC(=O)C1CSc2ccccc2C1=O (stereo not shown) [Compound 9b + 10b, Methyl 4-oxo-thiochromane-3-carboxylate]
Given back: 2.69

Others:
Asked: Note log10 of CC50 at 72 h for the molecule shown: O=CC1=Cc2ccccc2SC1c1ccc(F)cc1 (stereo not shown) [Compound 13b]
Given back: 0.98

Asked: Please supply the value of reported log10 of CC50 at 72 h for the item O=C(C1=Cc2ccccc2SC1c1ccc([N+](=O)[O-])cc1)c1ccc(Cl)cc1 (stereo not shown) [Compound 15c]
Given back: 2.18

Asked: Annotate the molecule COc1ccc2c(c1)C(=O)CC(C(=O)O)S2 (stereo not shown) [Compound 20c] with its measured log10 of CC50 at 72 h.
Given back: 1.88

Asked: Provide measured log10 of CC50 at 72 h value, entry: O=CC1=Cc2ccccc2SC1c1ccc(Cl)cc1 (stereo not shown) [Compound 13c]
Given back: 2.21

Asked: Provide measured log10 of CC50 at 72 h value, entry: COC(=O)C1=Cc2ccccc2SC1 [Compound 8b, Methyl 2H-thiochromene-3-carboxylate]
Given back: 2.55

---

# test description: Cytotoxic activity, MTT method
# Format: cell-based
# conditions: human, LC50
Entries and their measured CC50 at 72 h follow.
Just the number in µM, nothing appended.

Asked: Please report CC50 at 72 h for the following molecule: O=CC1=Cc2ccccc2SC1c1ccccc1[N+](=O)[O-] (stereo not drawn) [Compound 13d]
Given back: 23.9

Asked: Name the recorded CC50 at 72 h of the item CCCCCCNC(=O)C1CC(=O)c2ccccc2S1 (stereo not drawn) [Compound 24a, N-hexyl-4-oxo-thiochromane-2-carboxamide] in your answer.
Given back: 157

Asked: Report measured CC50 at 72 h; entry is COc1ccc2c(c1)SC(C(=O)O)CC2=O (stereo not drawn) [Compound 20d]
Given back: 90.4

Alright, here's another molecule for you.
Asked: Item O=C1CC(C(=O)O)Sc2ccccc21 (racemic) [Compound 20a, 4-Oxothiochromane-2-carboxylic acid] : provide CC50 at 72 h
Given back: 133

---

# test description: Cytotoxic activity, MTT method
# Assay type: cell-based
# conditions: human, LC50
measure: CC50 at 72 h (µM)
Answer in µM, number only, no unit symbol.

Sample answers from the record:
Asked: Supply reported CC50 at 72 h belonging to this compound: CCOC(=O)C1CC(=O)c2ccccc2S1 (centres unmarked) [Compound 22a, Ethyl 4-oxo-thiochromane-2-carboxylate]
Given back: 211

Asked: Entry O=C(C1=Cc2ccccc2SC1c1ccccc1)C(F)(F)F (centres unmarked) needs its CC50 at 72 h filled in; supply it.
Given back: 21.2

Asked: Retrieve CC50 at 72 h measured for O=C1CC(C(=O)O)Sc2ccc(F)cc21 (centres unmarked) [Compound 20b] and print it.
Given back: 210

Asked: Annotate the compound CCCCCCOC(=O)C1CC(=O)c2ccccc2S1 (centres unmarked) [Compound 22c, Hexyl 4-oxo-thiochromane-2-carboxylate] with its measured CC50 at 72 h.
Given back: 213

Next:
Asked: Identify CC50 at 72 h associated with the compound N#CC1=Cc2ccccc2SC1
Given back: 4

Asked: Identify measured CC50 at 72 h associated with CCCCOC(=O)C1CC(=O)c2ccccc2S1 (centres unmarked) [Compound 22b, Butyl 4-oxo-thiochromane-2-carboxylate]
Given back: 231

Asked: Return reported CC50 at 72 h. Input compound: N#CC1CSc2ccccc2C1=O (centres unmarked)
Given back: 770

Asked: In one line, give reported CC50 at 72 h of the entry O=C(C1=Cc2ccccc2SC1c1ccc(C(F)(F)F)cc1)c1ccc(Cl)cc1 (centres unmarked) [Compound 15b] .
Given back: 97.2

Asked: // Input: CCCCCCCCCCCCNC(=O)C1CC(=O)c2ccccc2S1 (centres unmarked) [Compound 24b] . Output its CC50 at 72 h only.
Given back: 148
